Assign APTT to each entry below.
- Species on record: Rattus norvegicus
- test.description: Open TG-GATES - Regimen: Single
- Assay type: toxicity, organism-based, Sprague-Dawley
- Parameters: regimen Single, gender Male, age 6 weeks
- details: in vivo, po, 0 mg/kg, 9 h, tissue Blood, route gavage, dose level Control
Use s as the unit, but write only the number.

Exercise: Reported APTT for O=C1CN(/N=C/c2ccc(-c3ccc([N+](=O)[O-])cc3)o2)C(O)=N1 [DANTROLENE] : what is it?
Solution: 17.1

Exercise: Now give it for O=C1NC(=O)C(c2ccccc2)(c2ccccc2)N1 [PHENYTOIN] too.
Solution: 15.5

Exercise: How about this molecule: Cn1cnc([N+](=O)[O-])c1Sc1ncnc2nc[nH]c12 [AZATHIOPRINE]
Solution: 20.8

Exercise: Also, Cc1cnc(NC(=O)C2=C(O)c3ccccc3S(=O)(=O)N2C)s1 [MELOXICAM] please.
Solution: 17.6

Exercise: Now consider S=C=Nc1cccc2ccccc12 [1-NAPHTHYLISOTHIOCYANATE] .
Solution: 17.6

Exercise: Now try COc1ccc(Cl)cc1C(=O)NCCc1ccc(S(=O)(=O)NC(=O)NC2CCCCC2)cc1 [GLYBURIDE] .
Solution: 19.1

Exercise: C=CCO [ALLYL ALCOHOL] , same question.
Solution: 18.7

Exercise: Next record, please: COc1ccc(O)c(C(C)(C)C)c1.COc1ccc(O)cc1C(C)(C)C [BUTYLATED HYDROXYANISOLE]
Solution: 15.7

Exercise: Next: Cc1cccc(Nc2cc(Cl)nc(SCC(=O)O)n2)c1C [PIRINIXIC ACID]
Solution: 15.9

Exercise: And for CS(=O)(=O)Nc1ccc([N+](=O)[O-])cc1Oc1ccccc1 [NIMESULIDE] ?
Solution: 17.5
